system: Staphylococcus epidermidis; experiment: Antibacterial activity against methicillin-resistant Staphylococcus epidermidis MRSE-1 by the broth microdilution method; format: functional
MEASUREMENT NAME: MIC (µg/mL)

[[record]]
smiles_data = "CC[C@H]1OC(=O)[C@H](C)C(=O)[C@H](C)[C@@H](O[C@@H]2O[C@H](C)C[C@H](N(C)C)[C@H]2O)[C@](C)(OC)C[C@@H](C)C(=O)[C@H](C)[C@H]2N(CCCCn3cnc(-c4cccnc4)c3)C(=O)O[C@]12C"
measurement_name = "MIC"
censoring_operator = "="
endpoint_result = 0.125

[[record]]
smiles_data = "CC[C@H]1OC(=O)[C@H](C)[C@@H](O[C@H]2C[C@@](C)(OC)[C@@H](O[C@@H]3O[C@H](CO)[C@@H](O)[C@H](O)[C@H]3O)[C@H](C)O2)[C@H](C)[C@@H](O[C@@H]2O[C@H](C)C[C@H](N(C)C)[C@H]2O)[C@](C)(OC)C[C@@H](C)C(=O)[C@H](C)[C@H]2N(CCCCn3cnc4cccnc43)C(=O)O[C@]12C"
measurement_name = "MIC"
censoring_operator = ">"
endpoint_result = 16


----------
test system: Streptococcus pyogenes; test: Antibacterial activity against Streptococcus pyogenes ERSPy-1 expressing mef by the broth microdilution method; format: functional
MEASUREMENT NAME: MIC (µg/mL)

[[record]]
smiles_data = "CC[C@H]1OC(=O)[C@H](C)[C@@H](O[C@H]2C[C@@](C)(OC)[C@@H](O[C@@H]3O[C@H](CO)[C@@H](O[C@H]4O[C@@H](CO)[C@H](O)[C@@H](O)[C@@H]4O)[C@H](O)[C@H]3O)[C@H](C)O2)[C@H](C)[C@@H](O[C@@H]2O[C@H](C)C[C@H](N(C)C)[C@H]2O)[C@](C)(OC)C[C@@H](C)C(=O)[C@H](C)[C@@H](O)[C@]1(C)O"
target_or_test_system = "Streptococcus pyogenes"
value_unit = "µg/mL"
censoring_operator = ">"
endpoint_result = 16

[[record]]
smiles_data = "CC[C@H]1OC(=O)[C@H](C)[C@@H](O[C@H]2C[C@@](C)(OC)[C@@H](O[C@@H]3O[C@H](CO)[C@@H](O)[C@H](O)[C@H]3O)[C@H](C)O2)[C@H](C)[C@@H](O[C@@H]2O[C@H](C)C[C@H](N(C)C)[C@H]2O)[C@](C)(OC)C[C@@H](C)C(=O)[C@H](C)[C@@H](O)[C@]1(C)O"
target_or_test_system = "Streptococcus pyogenes"
value_unit = "µg/mL"
censoring_operator = "="
endpoint_result = 16

[[record]]
smiles_data = "CC[C@H]1OC(=O)[C@H](C)[C@@H](O[C@H]2C[C@@](C)(OC)[C@@H](O[C@@H]3O[C@H](COC(=O)c4ccccc4)[C@@H](OC(=O)c4ccccc4)[C@H](OC(C)=O)[C@H]3OC(C)=O)[C@H](C)O2)[C@H](C)[C@@H](O[C@@H]2O[C@H](C)C[C@H](N(C)C)[C@H]2O)[C@](C)(OC)C[C@@H](C)C(=O)[C@H](C)[C@@H](O)[C@]1(C)O"
target_or_test_system = "Streptococcus pyogenes"
value_unit = "µg/mL"
censoring_operator = "="
endpoint_result = 8

[[record]]
smiles_data = "CC[C@H]1OC(=O)[C@H](C)[C@@H](O[C@H]2C[C@@](C)(OC)[C@@H](O)[C@H](C)O2)[C@H](C)[C@@H](O[C@@H]2O[C@H](C)C[C@H](N(C)C)[C@H]2O)[C@](C)(OC)C[C@@H](C)C(=O)[C@H](C)[C@@H](O)[C@]1(C)O"
target_or_test_system = "Streptococcus pyogenes"
value_unit = "µg/mL"
censoring_operator = "="
endpoint_result = 2

[[record]]
smiles_data = "CC[C@H]1OC(=O)[C@H](C)C(=O)[C@H](C)[C@@H](O[C@@H]2O[C@H](C)C[C@H](N(C)C)[C@H]2O)[C@](C)(OC)C[C@@H](C)C(=O)[C@H](C)[C@H]2N(CCCCn3cnc(-c4cccnc4)c3)C(=O)O[C@]12C"
target_or_test_system = "Streptococcus pyogenes"
value_unit = "µg/mL"
censoring_operator = "="
endpoint_result = 0.25

[[record]]
smiles_data = "CC[C@H]1OC(=O)[C@H](C)[C@@H](O[C@H]2C[C@@](C)(OC)[C@@H](O[C@H]3O[C@H](COC(C)=O)[C@@H](OC(=O)c4ccccc4)[C@H](OC(C)=O)[C@H]3OC(C)=O)[C@H](C)O2)[C@H](C)[C@@H](O[C@@H]2O[C@H](C)C[C@H](N(C)C)[C@H]2O)[C@](C)(OC)C[C@@H](C)C(=O)[C@H](C)[C@@H](O)[C@]1(C)O"
target_or_test_system = "Streptococcus pyogenes"
value_unit = "µg/mL"
censoring_operator = "="
endpoint_result = 1

